Reported pEC50 values for a set of compounds
Target: CFTR (Homo sapiens, UniProt P13569, DEL508-508)
Construct: endogenous in cells; host or cells: primary human bronchial epithelial cells from CF subjects (F508del/MF-HBE), differentiated at air-liquid interface
Sequence (P13569 with tags, fused parts or gaps DEL508-508): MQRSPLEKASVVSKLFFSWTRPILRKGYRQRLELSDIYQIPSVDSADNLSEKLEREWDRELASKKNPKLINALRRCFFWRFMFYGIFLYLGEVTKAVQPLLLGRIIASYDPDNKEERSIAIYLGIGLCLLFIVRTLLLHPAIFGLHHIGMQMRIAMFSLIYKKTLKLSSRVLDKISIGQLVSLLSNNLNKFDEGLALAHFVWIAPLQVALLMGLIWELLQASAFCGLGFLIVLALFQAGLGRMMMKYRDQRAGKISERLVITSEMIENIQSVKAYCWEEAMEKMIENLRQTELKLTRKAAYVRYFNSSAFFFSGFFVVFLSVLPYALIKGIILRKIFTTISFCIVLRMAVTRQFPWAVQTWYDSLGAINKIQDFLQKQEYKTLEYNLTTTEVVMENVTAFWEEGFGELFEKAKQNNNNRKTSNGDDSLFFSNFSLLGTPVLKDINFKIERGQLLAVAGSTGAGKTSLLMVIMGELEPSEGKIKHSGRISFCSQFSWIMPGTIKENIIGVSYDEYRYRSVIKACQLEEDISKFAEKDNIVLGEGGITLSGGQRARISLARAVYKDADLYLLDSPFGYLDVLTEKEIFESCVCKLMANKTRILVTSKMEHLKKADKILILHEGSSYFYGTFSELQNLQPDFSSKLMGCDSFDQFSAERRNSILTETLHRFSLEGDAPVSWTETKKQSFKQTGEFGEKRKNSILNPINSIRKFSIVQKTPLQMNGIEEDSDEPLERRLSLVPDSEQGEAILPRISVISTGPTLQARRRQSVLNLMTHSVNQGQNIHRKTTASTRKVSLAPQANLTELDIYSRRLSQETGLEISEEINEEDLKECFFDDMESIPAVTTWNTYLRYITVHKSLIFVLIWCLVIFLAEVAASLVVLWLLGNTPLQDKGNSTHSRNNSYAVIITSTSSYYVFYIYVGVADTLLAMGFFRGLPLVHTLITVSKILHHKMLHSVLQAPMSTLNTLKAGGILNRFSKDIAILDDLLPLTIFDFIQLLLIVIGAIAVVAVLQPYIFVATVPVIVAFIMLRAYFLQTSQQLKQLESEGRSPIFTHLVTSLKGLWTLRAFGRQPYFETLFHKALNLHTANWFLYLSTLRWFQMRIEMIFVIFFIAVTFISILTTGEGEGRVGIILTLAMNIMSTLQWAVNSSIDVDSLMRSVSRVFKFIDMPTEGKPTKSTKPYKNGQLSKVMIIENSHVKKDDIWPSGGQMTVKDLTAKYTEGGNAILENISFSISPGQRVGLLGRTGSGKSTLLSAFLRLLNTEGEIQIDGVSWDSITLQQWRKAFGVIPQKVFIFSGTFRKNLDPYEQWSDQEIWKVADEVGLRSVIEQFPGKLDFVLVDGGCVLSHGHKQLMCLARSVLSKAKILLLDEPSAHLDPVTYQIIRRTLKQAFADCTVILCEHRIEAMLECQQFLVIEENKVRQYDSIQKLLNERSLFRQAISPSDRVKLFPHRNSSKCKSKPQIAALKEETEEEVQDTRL
Test: HBE assay: Ussing chamber assay of CFTR-mediated short-circuit currents
Format: cell-based
Conditions: HBE assay; read-out: HBE EC50
pEC50: −log10 of the molar value.

> print(dat)
                                   compound  measure  measuredvalue
1  Cc1cccc(C)c1-c1cc2nc(n1)NS(=O)(=O)c1cccc(c1)C(=O)N(Cc1cccc(NC3CCOC3)n1)[C@H](CC(C)(C)C)CO2 (stereo partly drawn)    pEC50         > 6.00
2  Cc1cccc(C)c1-c1cc2nc(n1)NS(=O)(=O)c1cccc(c1)C(=O)N(Cc1cncc(N3CCC[C@H]3COC(C)C)n1)[C@H](CC(C)(C)C)CO2    pEC50         > 6.00
3  Cc1cccc(C)c1-c1cc2nc(n1)NS(=O)(=O)c1cccc(c1)C(=O)N(Cc1ncc(OC(C)C)cn1)[C@H](CC1CCC1)CO2    pEC50         > 6.00

Sure, the documented pEC50 for Cc1cccc(C)c1-c1cc2nc(n1)NS(=O)(=O)c1cccc(c1)C(=O)N(Cc1cccc(N3CCOC[C@@H]3C)n1)[C@H](CC(C)(C)C)CO2 (stereo in doubt) is > 6.00

Sure, the documented pEC50 for Cc1cccc(C)c1-c1cc2nc(n1)NS(=O)(=O)c1cccc(c1)C(=O)N(Cc1ncc(N3CCC(F)(F)C3)cn1)[C@H](CC1CC1)CO2 is > 6.00

Sure, the documented pEC50 for Cc1cccc(C)c1-c1cc2nc(n1)NS(=O)(=O)c1cccc(c1)C(=O)N(Cc1ncc(N3CC[C@H]3C)cn1)[C@H](CC(C)(C)C)CO2 [Compound 1405] is > 6.00

---

Biological target: CFTR (Homo sapiens, UniProt P13569, DEL508-508)
Construct: endogenous in cells; host or cells: primary human bronchial epithelial cells from CF subjects (F508del/MF-HBE), differentiated at air-liquid interface
Test: HBE2 assay: Ussing chamber assay of CFTR-mediated short-circuit currents
Format: cell-based
Conditions: F508del/MF-HBE cells; with 44 nM potentiator; 18-24 hours; 20% human serum; read-out: HBE2 Max activity (%)
measure: Emax

Record excerpt, results attached:
compound	Emax
Cc1cccc(C)c1-c1cc2nc(n1)NS(=O)(=O)c1cccc(c1)C(=O)N(Cc1ncc(N3CC(C)(C)C3)cn1)[C@H](CC1CCC1)CO2 [Compound 1594]	> 60%
CC[C@@H](C)N(C)c1cncc(CN2C(=O)c3cccc(c3)S(=O)(=O)Nc3nc(cc(-c4c(C)cccc4C)n3)OC[C@H]2CC(C)(C)C)n1 (stereo in doubt) [Compound 1672]	> 60%

# next compound below
Sure, the documented Emax for Cc1cccc(C)c1-c1cc2nc(n1)NS(=O)(=O)c1cccc(c1)C(=O)N(Cc1cncc(N(C)C3CCC3)n1)[C@H](C1CC3(CCC3)C1)CO2 (single isomer, unassigned) [Compound 1320] is > 60%

---

Reported EC50 values for a set of compounds
Biological target: CFTR (Homo sapiens, UniProt P13569)
Sequence (P13569 with tags, fused parts or gaps DEL508-508): as above
Assay: Membrane potential dye, Enteroid Assay A
Format: cell-based
Conditions: Table 7; human enteroid cells, 18-24 hours; acute 10 μM forskolin and 300 nM ivacaftor; read-out: Ent. A EC50

Record excerpt, results attached:
> print(dat)
                                   compound                         systemtested  measuredvalue
1  Cc1cccc(C)c1-c1cc2nc(n1)NS(=O)(=O)c1cccc(c1)C(=O)N(Cc1ccc(N(C)CCN(C)C)nc1)[C@H](CC(C)C)CO2  CFTR (Homo sapiens, UniProt P13569)         < 1 µM
2  Cc1cccc(C)c1-c1cc2nc(n1)NS(=O)(=O)c1cccc(c1)CN(CCn1c(=O)oc3ccccc31)[C@H](CC(C)C)CO2  CFTR (Homo sapiens, UniProt P13569)         < 1 µM

# next compound below
Sure, the documented EC50 for Cc1cccc(C)c1-c1cc2nc(n1)NS(=O)(=O)c1cccc(c1)C(=O)N(Cc1ccc(N3CCC(C)(C#N)CC3)nc1)[C@H](CC(C)C)CO2 is < 1 µM
